# remaining at 24 h, 100 µM per entry
# methodDescription: Stability of the compound in pH 3 solution at 10^-4 M after 24 hrs by HPLC analysis
# Type: physicochemical
# experimentalSetup: read-out: Stability
# unit: % | format: bare number

See these solved cases before continuing.
In [3]: df
Out[3]:
                                   compound  observedresult
0  c1nc(NCC2CCCO2)c2ncn(C3CCCO3)c2n1 (stereo not drawn)             0.4
1  c1csc(CNc2ncnc3c2ncn3C2CCCO2)c1 (stereo not drawn)             0.8

Now let's try a different one.
The reported remaining at 24 h, 100 µM of the compound Clc1nc(NCc2ccco2)c2ncn(C3CCCO3)c2n1 (stereo not drawn) was 0.9
